tested on: P. falciparum stage V gametocytes; parameters: BacTiter-Glo ATP luminescence viability of purified stage V gametocytes in 384-well plates, per cent inhibition versus DMSO; details: 48 h, 5 µM; inhibitor
In all, about 13,000 compounds went through this assay and about 3,200 (25%) showed an effect of 50% or more. Some of the results follow.

[
  {
    "Smiles Repr": "COc1cc(OC)cc(-c2nnc(Sc3ccc(C#N)c([N+](=O)[O-])c3)n2C)c1",
    "Target Desc": "P. falciparum stage V gametocytes",
    "% Inhibition": "42.48%"
  },
  {
    "Smiles Repr": "Cc1noc(C)c1-c1cccc(CNCc2ccc(-c3ccc(-c4nc5ccccc5[nH]4)s3)cc2)c1.O=C(O)C(F)(F)F",
    "Target Desc": "P. falciparum stage V gametocytes",
    "% Inhibition": "5.306%"
  },
  {
    "Smiles Repr": "CN(CCCCCNC(=O)/C=C/c1ccc(Cl)c(Cl)c1)CCc1c[nH]c2ccccc12",
    "Target Desc": "P. falciparum stage V gametocytes",
    "% Inhibition": "-26.77%"
  },
  {
    "Smiles Repr": "C=CCn1c(Cc2ccccc2)nnc1Sc1ccc(C#N)c([N+](=O)[O-])c1",
    "Target Desc": "P. falciparum stage V gametocytes",
    "% Inhibition": "45.02%"
  },
  {
    "Smiles Repr": "O=S(=O)(c1ccc(Oc2ccccc2)cc1)N(CCC(O)(C(F)(F)F)C(F)(F)F)Cc1cccc(O)c1",
    "Target Desc": "P. falciparum stage V gametocytes",
    "% Inhibition": "74.25%"
  },
  {
    "Smiles Repr": "COC(=O)c1cccc(CN(CCC(O)(C(F)(F)F)C(F)(F)F)C(=O)CC2CCCC2)c1",
    "Target Desc": "P. falciparum stage V gametocytes",
    "% Inhibition": "48.89%"
  },
  {
    "Smiles Repr": "CC(=O)Nc1ccc(CN(Cc2ccc(F)cc2)Cc2cccc(Oc3ccccc3)c2)cc1",
    "Target Desc": "P. falciparum stage V gametocytes",
    "% Inhibition": "-16.62%"
  },
  {
    "Smiles Repr": "Cc1cccc(C(=O)Nc2ccnc(N(C)C3CCN(CC(C)C)CC3)c2)c1",
    "Target Desc": "P. falciparum stage V gametocytes",
    "% Inhibition": "-10.51%"
  }
]

----------
tested on: P. falciparum stage V gametocytes; set-up: BacTiter-Glo ATP luminescence viability of purified stage V gametocytes in 384-well plates, per cent inhibition versus DMSO; conditions: 48 h, 5 µM; inhibitor
Out of some 13,000 compounds screened, about 3,200 (25%) showed an effect of 50% or more. This is one part of the list.
Attribute: % Inhibition
Property Label: % Inhibition (%)

[
  {
    "Molecule": "C=CCn1c(=N)c(C(=O)NC2CCCCC2)cc2c(=O)n3cccc(C)c3nc21 [TCMDC-125083]",
    "Target Desc": "P. falciparum stage V gametocytes",
    "Measurement Units": "%",
    "Measured": 96.68
  },
  {
    "Molecule": "COC(=O)c1cccc(NC(=O)NC2CCN(c3ccnc(NCc4ccc(F)cc4)n3)CC2)c1 [TCMDC-133636]",
    "Target Desc": "P. falciparum stage V gametocytes",
    "Measurement Units": "%",
    "Measured": 29.63
  },
  {
    "Molecule": "C=CCn1c(=N)c(C(=O)NCc2ccc(F)cc2)cc2c(=O)n3cccc(C)c3nc21 [TCMDC-125128]",
    "Target Desc": "P. falciparum stage V gametocytes",
    "Measurement Units": "%",
    "Measured": 82.89
  },
  {
    "Molecule": "COc1ccc(CCNC(=O)c2cc3c(=O)n4cccc(C)c4nc3n(C)c2=N)cc1 [TCMDC-125129]",
    "Target Desc": "P. falciparum stage V gametocytes",
    "Measurement Units": "%",
    "Measured": 30.65
  },
  {
    "Molecule": "Cc1cccn2c(=O)c3cc(C(=O)NC4CCCCC4)c(=N)n(CCCn4ccnc4)c3nc12 [TCMDC-125136]",
    "Target Desc": "P. falciparum stage V gametocytes",
    "Measurement Units": "%",
    "Measured": 14.71
  },
  {
    "Molecule": "Cc1cc(C2CCN(CCCCNC(=O)c3ccc(-c4ccc(C(F)(F)F)cc4)cc3)CC2)c(C)cc1OCC#N [TCMDC-138799]",
    "Target Desc": "P. falciparum stage V gametocytes",
    "Measurement Units": "%",
    "Measured": 37.57
  },
  {
    "Molecule": "O=C(NCCCCN1CCC(c2ccc3c(c2OCCOCCO)CCCC3)CC1)c1ccc(-c2ccc(C(F)(F)F)cc2)cc1 [TCMDC-138762]",
    "Target Desc": "P. falciparum stage V gametocytes",
    "Measurement Units": "%",
    "Measured": 96.11
  }
]

----------
Attribute: % Inhibition
system: P. falciparum stage V gametocytes; design: BacTiter-Glo ATP luminescence viability of purified stage V gametocytes in 384-well plates, per cent inhibition versus DMSO; details: 48 h, 5 µM; inhibitor
About 3,200 (25%) of roughly 13,000 compounds showed an effect of 50% or more. This is one part of the list.
Property Label: % Inhibition (%)

[
  {
    "Compound": "Cc1ccc(S(=O)(=O)N2CCN(C(=O)c3cc(-c4cccs4)[nH]n3)CC2)c(C)c1",
    "Measured": 26.64
  },
  {
    "Compound": "CC(=O)Nc1ccc(OCCCN(Cc2ccccc2OC(F)(F)F)c2ccc(C(F)(F)F)c(C#N)c2)c(Cl)c1",
    "Measured": 32.58
  },
  {
    "Compound": "O=C(c1cc(-c2ccco2)[nH]n1)N1CCN(S(=O)(=O)c2ccc(Cl)cc2)CC1",
    "Measured": 58.01
  },
  {
    "Compound": "CC(=O)Nc1ccc(OCCN(Cc2ccccc2C(F)(F)F)c2ccc(C#N)c(C(F)(F)F)c2)c(Cl)c1",
    "Measured": 76.06
  },
  {
    "Compound": "COc1ccc2ncc(F)c(CCN3C4CCC3CC(NCc3cc5c(cn3)OCS5)C4)c2n1 (centres unmarked)",
    "Measured": 24.95
  },
  {
    "Compound": "COc1cc(/C=C/C(=O)NC2CCC(N3CCC(c4ccccc4C)CC3)CC2)cc(OC)c1 (centres unmarked)",
    "Measured": -90.94
  },
  {
    "Compound": "O=C(c1cc(-c2cccs2)[nH]n1)N1CCN(S(=O)(=O)c2ccc(Br)cc2)CC1",
    "Measured": 15.64
  },
  {
    "Compound": "N#Cc1ccc(N(CCNS(=O)(=O)c2cc(Br)c(Cl)s2)Cc2ccccc2C(F)(F)F)cc1C(F)(F)F",
    "Measured": 50.22
  }
]

----------
system: P. falciparum stage V gametocytes; set-up: BacTiter-Glo ATP luminescence viability of purified stage V gametocytes in 384-well plates, per cent inhibition versus DMSO; settings: 48 h, 5 µM; inhibitor
Hit rate of the full screen: of about 13,000 compounds, about 3,200 (25%) showed an effect of 50% or more. This is one part of the list.
Attribute: % Inhibition

[
  {
    "Molecule": "Oc1ccc(-c2cc(-c3ccc(O)cc3)nc(-c3ccccc3)n2)cc1 [TCMDC-123851]",
    "% Inhibition / %": -22.65
  },
  {
    "Molecule": "Cc1ccccc1C1CCN(C2CCC(NC(=O)c3ccc(-c4cccs4)s3)CC2)CC1 (centres unmarked) [TCMDC-134105]",
    "% Inhibition / %": -3.744
  },
  {
    "Molecule": "OC(CN1CCN(Cc2ccccc2)CC1)Cn1c(-c2ccccc2)c(-c2ccccc2)c2ccccc21 (centres unmarked) [TCMDC-124021]",
    "% Inhibition / %": 9.388
  },
  {
    "Molecule": "Cc1ccc(-n2c(=O)c3cccnc3n2CC(=O)Nc2cccc(C)c2C)cc1 [TCMDC-125161]",
    "% Inhibition / %": 23.17
  },
  {
    "Molecule": "CCOc1cc(C(=O)N[C@@H](Cc2ccccc2)[C@H](O)CNCc2cc(OC)cc(OC)c2)cc(N2CCCC2=O)c1 [TCMDC-134571]",
    "% Inhibition / %": -29.57
  }
]

----------
system: P. falciparum stage V gametocytes; design: BacTiter-Glo ATP luminescence viability of purified stage V gametocytes in 384-well plates, per cent inhibition versus DMSO; settings: 48 h, 5 µM; inhibitor
The whole screen tested about 13,000 compounds, of which about 3,200 (25%) showed an effect of 50% or more. Some of the results follow.
Attribute: % Inhibition
Property Label: % Inhibition (%)

[
  {
    "Molecule": "CN(C)CCOc1ccc2c(c1)CN(C)CC2c1ccccc1 (stereo not shown)",
    "Measured": 7.627
  },
  {
    "Molecule": "CC(C)C(=O)NC(c1ccc(Cl)cc1)c1ccc2cccnc2c1O (stereo not shown)",
    "Measured": 44.71
  },
  {
    "Molecule": "CCCC(=O)NC(c1ccc(C)cc1)c1ccc2cccnc2c1O (stereo not shown)",
    "Measured": 92.74
  },
  {
    "Molecule": "CCC(C)CN1CCN(c2cc(NC(=O)c3cccs3)ccn2)C(C)C1 (stereo not shown)",
    "Measured": 14.25
  },
  {
    "Molecule": "O=C(Nc1ccc(OC2CCN(Cc3ccccc3)CC2)c(Cl)c1)c1cccs1",
    "Measured": 24.3
  },
  {
    "Molecule": "O=S(=O)(c1cccc2cccnc12)N1CCN(C2CCCCC2)CC1",
    "Measured": 8.014
  },
  {
    "Molecule": "CCCC(=O)NC(c1ccc(C(C)C)cc1)c1ccc2cccnc2c1O (stereo not shown)",
    "Measured": 62.61
  },
  {
    "Molecule": "O=C(Nc1cccc(-c2ccc(-c3nc4ccccc4[nH]3)cc2)c1)Nc1ccc(F)c(F)c1F",
    "Measured": -14.97
  },
  {
    "Molecule": "CCC(C)NC(=O)Cn1c2ncccc2c(=O)n1-c1ccc(C)cc1 (stereo not shown)",
    "Measured": -0.9664
  },
  {
    "Molecule": "CCCc1cc(OC)c(CC2c3cc(O)c(C)cc3CCN2C)cc1OC (stereo not shown)",
    "Measured": -32.49
  },
  {
    "Molecule": "CC(=O)Nc1ccc(S(=O)(=O)Nc2ccc(Nc3nc(C)cc(N(C)C)n3)cc2)cc1",
    "Measured": -47.31
  },
  {
    "Molecule": "CCCCSc1nc2c(c(=O)n1Cc1ccco1)C1(CCCCC1)Cc1ccccc1-2",
    "Measured": -14.5
  },
  {
    "Molecule": "N#Cc1ccc(-c2ccc(C(=O)Nc3ccc4c(c3)CCN(C3CCC3)CC4)nc2)cc1",
    "Measured": 15.17
  },
  {
    "Molecule": "COc1ccc(-c2nc3nc4ccccc4cc3[nH]2)c(OCC(O)CNC(C)C)c1 (stereo not shown)",
    "Measured": 26.08
  },
  {
    "Molecule": "O=[N+]([O-])c1ccc(-c2ccc(C=NNc3nc(Nc4ccccc4)nc(Nc4ccccc4)n3)o2)cc1",
    "Measured": -25.78
  },
  {
    "Molecule": "O=[N+]([O-])c1ccc(Nc2nc(N/N=C/c3ccc(-c4ccc([N+](=O)[O-])cc4)o3)nc(Nc3ccccc3)n2)cc1",
    "Measured": -4.596
  },
  {
    "Molecule": "COc1ccc(S(=O)(=O)NC2CCN(c3ccc(C(F)(F)F)cc3NC(=O)OCC(C)C)CC2)cc1",
    "Measured": 14.87
  },
  {
    "Molecule": "CCN(CC)CCN(Cc1ccc(-c2ccc(C(F)(F)F)cc2)cc1)C(=O)Cn1c(CCc2ccc(F)cc2)nc(=O)c2sccc21",
    "Measured": 90.56
  },
  {
    "Molecule": "N#Cc1ccc(NC(=NCc2ccc(Cl)cc2Cl)Nc2cccc(Cl)c2Cl)c(O)c1",
    "Measured": -0.417
  },
  {
    "Molecule": "Cc1cccc(CN2CCCN(Cc3cccc(C(=O)Nc4ccc(C(C)(C)C)cc4)c3)CC2)c1",
    "Measured": -91.41
  },
  {
    "Molecule": "Cc1ccc2c(N/N=C/c3cccc([N+](=O)[O-])c3)cc(C)nc2c1",
    "Measured": 87.02
  },
  {
    "Molecule": "CC(C)CCN1CCC(Oc2ccc(NC(=O)c3ccccc3)cc2Cl)CC1",
    "Measured": 11.22
  },
  {
    "Molecule": "Cc1oc(-c2ccccc2)nc1CCOc1ccc(C[C@H](Nc2ccccc2C(=O)c2ccccc2)C(=O)NCc2ccccn2)cc1",
    "Measured": -1.633
  },
  {
    "Molecule": "CS(=O)(=O)CCNC(=O)c1ccc(-c2cc3c(Nc4ccc5c(cnn5Cc5ccccc5)c4)ncnc3cn2)o1",
    "Measured": 1.646
  },
  {
    "Molecule": "Cn1cncc1C(=O)NC1CCN(c2ccnc(Nc3ccc(F)cc3)n2)C1 (stereo not shown)",
    "Measured": -9.129
  }
]
